Tested on: PC-3
Assay: NCI tumour cell line growth inhibition, 48 h
Calls of active or inactive are those of the source. Rule as the data show it: active = GI50 up to about 1.1 µM and inactive = higher.
Outcome codes: active, inactive

compound="CN(C)C(=O)C(NCCO)c1ccccc1 (stereo not given)" discrete_label=inactive
compound="CC(C)c1ccccc1SC1CC(=O)CC(Sc2ccccc2C(C)C)C12O[C@H](c1ccccc1)[C@@H](c1ccccc1)O2 (stereo not given in full)" discrete_label=inactive
compound=Cc1ncc([N+](=O)[O-])n1CCNC(=O)CCCCn1ccnc1[N+](=O)[O-] discrete_label=inactive
compound="CN(C)CC(NC(NCS)C(=O)NCCNc1ccc(NCCNC(=O)C(NCS)NC(CN(C)C)OCCl)c2c1C(=O)c1c(O)ccc(O)c1C2=O)OCCl (stereo not given)" discrete_label=active
compound="COc1c2c3c4c(c(OC)c(=O)c5c(O)cc(OC)c(c6c(OC)cc(O)c(c1=O)c63)c54)C(C(C)O)C2C(C)O (stereo not given)" discrete_label=active

* * *

System: HOP-62
Test: NCI tumour cell line growth inhibition, 48 h
Calls of active or inactive are those of the source. No stated cut-off is given here; in the data, active = GI50 up to about 1.1 µM and inactive = higher.
Labels: class 1 = active, class 0 = inactive

compound=O=C(N/N=C\c1c(O)ccc2ccccc12)c1ccncc1 discrete_label="class 0"
compound=Cc1cc(C)nc(NS(=O)(=O)c2ccc(Nc3c4ccc(Cl)cc4nc4c(C(=O)NCCN(C)C)cccc34)cc2)n1 discrete_label="class 0"
compound=Oc1cc(CN2CCOCCOCCOCCOCC2)c(O)cc1CN1CCOCCOCCOCCOCC1 discrete_label="class 0"
compound="C#CC1(OC(C)=O)CCC2C3CC=C4C=C(OC(C)=O)CCC4(C)C3CCC21C (stereo not drawn)" discrete_label="class 0"
compound=NC(=O)c1nnc2ccc(F)cc2c1N discrete_label="class 0"
compound="CN(C)CC(NC(NCS)C(=O)NCCNc1ccc(NCCNC(=O)C(NCS)NC(CN(C)C)OCCl)c2c1C(=O)c1c(O)ccc(O)c1C2=O)OCCl (stereo not drawn)" discrete_label="class 1"
compound=O=C(Cn1ccc(=O)[nH]c1=O)Nc1ccc(C(=O)O)c(O)c1 discrete_label="class 0"
compound=Cc1cccc(-c2nnc3s/c(=C\c4ccc(N(C)C)cc4)c(=O)n23)c1 discrete_label="class 0"
compound=Cn1c2ccccc2c(=O)c2c([N+](=O)[O-])ccc(NCCN)c21 discrete_label="class 0"
compound="CCC1CN2CCc3cc(OC)c(OC)cc3C2CC1CC1c2cc(OC)c(OC)cc2CCN1C(=O)C(N)Cc1ccccc1.[O-][Cl+3]([O-])([O-])O (stereo not drawn)" discrete_label="class 0"
compound=O=C(Nc1ccc2nc(O)n[n+]([O-])c2c1)C(F)(F)F discrete_label="class 0"
compound=CCCCCCCCCCCC[N+]12CC[N+](CCN)(CC1)CC2 discrete_label="class 0"
compound=COC(=O)C1=C(C(=O)OC)C(C(=O)OC)C(C(=O)OC)=C1C(=O)OC discrete_label="class 0"

* * *

Test system: HL-60
Test: NCI tumour cell line growth inhibition, 48 h
Calls of active or inactive are those of the source. Rule as the data show it: active = GI50 up to about 1.1 µM and inactive = higher.
readout_name: GI50

compound=Nn1c(-c2ccccc2)n[nH]c1=O result="> 100 µM (inactive)"
compound="CC1(C)OCC(C2OC(C)(C)OC2[C@H]2O[C@@]3(O)[C@H]4[C@H](C=CC[C@@H]42)[C@@H](OCc2ccccc2)[C@H](OCc2ccccc2)[C@H]3OCc2ccccc2)O1 (some centres not stated)" result="14.4 µM (inactive)"
compound="CC(C)(C)C(=O)CC1=Nc2ccccc2SC1(O)CC(=O)C(C)(C)C (configuration not stated)" result="30.9 µM (inactive)"
compound="CO/N=C1/c2sccc2[C@H](NC(=O)C(Cc2ccccc2)NC(=O)OC(C)(C)C)[C@@H]1O (some centres not stated)" result="85.1 µM (inactive)"
compound="C1OC1C1CO1 (configuration not stated)" result="3.14 µM (inactive)"
compound=CC(=O)NC(=O)/N=C1\NCCC(=O)N1CCc1c[nH]c2ccccc12 result="> 100 µM (inactive)"
compound="CC(C)(Cl)C(Br)CCC(Br)(CCl)C(Cl)CBr (configuration not stated)" result="> 10 µM (inactive)"
compound=O=C1[C@@H]2[C@@H](c3ccccc3)[C@]2(Cl)C(=O)[C@H]2[C@H](c3ccccc3)[C@@]12Cl result="> 100 µM (inactive)"
compound="Cc1cn(C2CC(O)C(COC(N)=O)O2)c(=O)[nH]c1=O (configuration not stated)" result="> 100 µM (inactive)"
compound=O=C1Cc2c([nH]c3c(Br)cccc23)-c2ccccc2N1 result="21.5 µM (inactive)"
compound="O[C@H]1[C@H]2c3cc4c(cc3CN3CCC(=C[C@@H]1O)[C@H]23)OCO4 [LYCORINE]" result="2.14 µM (inactive)"
compound=CC1=C(C(=O)OCc2ccncc2)C(C2=C(C)SCCS2)C(C(=O)OCc2ccncc2)=C(C)N1 result="25.4 µM (inactive)"

* * *

System: SK-MEL-5
Test: NCI tumour cell line growth inhibition, 48 h
Activity calls are given as the source filed them. Rule as the data show it: active = GI50 up to about 1.1 µM and inactive = higher.
Possible outcomes: active, inactive

compound="CC1(C)OCC(C2OC(C)(C)OC2[C@H]2O[C@@]3(O)[C@H]4[C@H](C=CC[C@@H]42)[C@@H](OCc2ccccc2)[C@H](OCc2ccccc2)[C@H]3OCc2ccccc2)O1 (some centres not stated)" target_or_system=SK-MEL-5 discrete_label=inactive
compound="S=C1CC(c2ccc(Cl)cc2)Sc2ccccc2N1 (configuration not stated)" target_or_system=SK-MEL-5 discrete_label=inactive
compound="Cc1cn(C2CC(O)C(COC(N)=O)O2)c(=O)[nH]c1=O (configuration not stated)" target_or_system=SK-MEL-5 discrete_label=inactive
compound="CCC1CN2CCc3cc(OC)c(OC)cc3C2CC1CC1c2cc(OC)c(OC)cc2CCN1C(=O)C(N)Cc1ccccc1.[O-][Cl+3]([O-])([O-])O (configuration not stated)" target_or_system=SK-MEL-5 discrete_label=inactive
compound="COc1c(O)c2c(c3cc(C(=O)N4CCc5c4c(O)c(OC)c4[nH]c(C(=O)N6CC7CC78C6=CC(=O)c6[nH]cc(C)c68)cc54)[nH]c13)CCN2C(N)=O (configuration not stated) [CC-1065]" target_or_system=SK-MEL-5 discrete_label=active
compound=CSC(=S)N(C)c1nc(N(C)C)s[s+]1 target_or_system=SK-MEL-5 discrete_label=inactive
compound="CC(C)(C)OC(=O)N1C(c2cccnc2)=CC[C@H]2C3CC=C(c4cccnc4)[C@@]3(C)CC[C@@H]21 (some centres not stated)" target_or_system=SK-MEL-5 discrete_label=inactive

* * *

Tested on: NCI-H460
Assay: NCI tumour cell line growth inhibition, 48 h
The source made the active and inactive calls. Cut-off read from the data, not from the text of the source: active = GI50 up to about 1.1 µM and inactive = higher.
readout_name: GI50

compound="CCCC(O)c1ccc2[nH]c3c(C)cc([N+](=O)[O-])c(C)c3c2c1 (centres undefined)" result="> 100 µM (inactive)"
compound=CN1CCC2(CC1)/C(=N/C1CCCCC1)NC(=O)N2c1ccccc1 result="> 100 µM (inactive)"
compound=Cc1nn(-c2ccccc2)c2c1CC(=O)Nc1ccccc1-2 result="0.521 µM (active)"
compound=CNNC1=NS(=O)(=O)c2cc(C#N)c(Cl)cc2S1 result="> 10 µM (inactive)"
compound=COc1ccccc1NC(=O)C1=C(C)NC(C)=C(C(=O)Nc2ccccc2OC)C1c1ccc(C)cc1 result="31.8 µM (inactive)"
compound="Cc1cc(C)c2c(c1)CC1(Cc3c(C)ccc(C)c3C1=O)C2=O (centres undefined)" result="> 100 µM (inactive)"
compound=COC(=O)c1cc2c3c(c(C(C)=O)c(OC)c2[nH]1)NCC3 result="> 50 µM (inactive)"
compound="Nc1nc2c(ncn2C2C=CC(COS(N)(=O)=O)C2)c(=O)[nH]1 (centres undefined)" result="> 100 µM (inactive)"
compound=COc1ccc(-c2nc(SCC(=O)NNC(=S)Nc3ccccc3)[nH]c2-c2ccc(OC)cc2)cc1 result="14.8 µM (inactive)"

* * *

Documented GI50 across a set of compounds
System: NCI-H226
Test: NCI tumour cell line growth inhibition, 48 h
Active and inactive are the calls of the source. Cut-off read from the data, not from the text of the source: active = GI50 up to about 1.1 µM and inactive = higher.
readout_name: GI50

compound="O=C(NCCCCCCNC(=O)n1cc(F)c(=O)[nH]c1=O)NCCCOCCOCCOCCOCCOCCOCCOCCOCCOCCOCCOCCOCCOCCOCCOCCOCCOCCOCCOCCOCCOCCCNC(=O)C(O)C(O)C(OC1OC(CO)C(O)C(O)C1O)C(O)CO (stereo not given)" readout_name=GI50 result="> 77.3 µM (inactive)"
compound="CCCC(O)c1ccc2[nH]c3c(C)cc([N+](=O)[O-])c(C)c3c2c1 (stereo not given)" readout_name=GI50 result="> 100 µM (inactive)"
compound="Cc1ccc(C)c(NC(=O)CC2C(=O)Nc3ccccc3S2(=O)=O)c1 (stereo not given)" readout_name=GI50 result="36.8 µM (inactive)"
compound="O=C1OC(=O)C2C1C1(c3ccccc3)OC2(c2ccccc2)c2c(Br)c(Br)c(Br)c(Br)c21 (stereo not given)" readout_name=GI50 result="> 100 µM (inactive)"
compound=Cc1c(CCOC=O)c(=O)[nH]c2nncn12 readout_name=GI50 result="> 100 µM (inactive)"
